PROPERTY: melting point

Field: example entries. Status: answers known.
- INPUT_SMILES: "C[C@H]1[C@@H](OCc2cn(Cc3cc4cc(Cl)ccc4oc3=O)nn2)O[C@@H]2O[C@@]3(C)CC[C@H]4[C@H](C)CC[C@@H]1[C@@]24OO3"
  melting point: "93 to 95 °C"
- INPUT_SMILES: "C[C@H]1[C@@H](OCCc2cn(Cc3cc4cc(Br)cc(Br)c4oc3=O)nn2)O[C@@H]2O[C@@]3(C)CC[C@H]4[C@H](C)CC[C@@H]1[C@@]24OO3"
  melting point: "93 to 95 °C"

-- ask Dear colleague, I am looking for the recorded melting point of the following compound: `Cc1cccc2c(OCc3cn(CCCO[C@H]4O[C@@H]5O[C@@]6(C)CC[C@H]7[C@H](C)CC[C@@H]([C@H]4C)[C@@]57OO6)nn3)cc(=O)oc12`
-- reply 143 to 145 °C

-- ask Dear colleague, I am looking for the recorded melting point of the following compound: `Cc1cc(C)c2c(OCc3cn(CCO[C@H]4O[C@@H]5O[C@@]6(C)CC[C@H]7[C@H](C)CC[C@@H]([C@H]4C)[C@@]57OO6)nn3)cc(=O)oc2c1`
-- reply 111 to 113 °C

-- ask Dear colleague, I am looking for the recorded melting point of the following compound: `Cc1ccc2oc(=O)cc(OCc3cn(CCCO[C@H]4O[C@@H]5O[C@@]6(C)CC[C@H]7[C@H](C)CC[C@@H]([C@H]4C)[C@@]57OO6)nn3)c2c1`
-- reply 80 to 82 °C

-- ask Dear colleague, I am looking for the recorded melting point of the following compound: `C[C@H]1[C@@H](OCCCn2cc(COc3cc(=O)oc4ccccc34)nn2)O[C@@H]2O[C@@]3(C)CC[C@H]4[C@H](C)CC[C@@H]1[C@@]24OO3`
-- reply 74 to 76 °C

Where these numbers come from: paper PMC6539525
